Values from patent US9981972B2

- TARGET: LYPLA1 (Mus musculus, UniProt P97823)
- Construct: a complex proteome endogenously expressing LYPLA1/2 was incubated with test compound; from tissue; host or cells: mouse brain, membrane fraction
- Sequence (P97823 whole entry): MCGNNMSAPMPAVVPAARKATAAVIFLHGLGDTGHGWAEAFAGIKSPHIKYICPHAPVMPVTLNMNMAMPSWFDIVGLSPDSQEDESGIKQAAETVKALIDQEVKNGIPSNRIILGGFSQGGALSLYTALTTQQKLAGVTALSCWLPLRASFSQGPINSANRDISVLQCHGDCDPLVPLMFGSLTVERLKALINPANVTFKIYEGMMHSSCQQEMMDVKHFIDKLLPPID
- EXPERIMENT DESCRIPTION: Gel-based competitive ABPP in vitro, mouse brain membrane proteome
- Type: biochemical
- CONDITION LABEL: 100 μM compound, 30 min, one replicate; read-out: LYPLA1 % INH 100 μM
READOUT LABEL: inhibition at 100 µM (%)

1 = CC(C)(C)OC(=O)N1CCN2C(=O)N(OC(=O)N3CCN(C(c4ccc(Cl)cc4)c4ccc(Cl)cc4)CC3)C(=O)C2C1 (centres unmarked)
2 = O=C(ON1C(=O)C2CN(C(=O)N3CCCCC3)CCN2C1=O)N1CCC(CCc2ccc(Cl)cc2)CC1 (centres unmarked)
Identify the item whose inhibition at 100 µM is the smaller number: 1 or 2 The response must carry the label of the picked entry.
1

====

- TARGET: human LYPLA1 (Homo sapiens, UniProt O75608)
- Construct: endogenous human LYPLA1/2 in a HeLa soluble proteome; endogenous in cells; host or cells: HeLa (soluble proteome in vitro; cultured cells in situ)
- Sequence (O75608 whole entry): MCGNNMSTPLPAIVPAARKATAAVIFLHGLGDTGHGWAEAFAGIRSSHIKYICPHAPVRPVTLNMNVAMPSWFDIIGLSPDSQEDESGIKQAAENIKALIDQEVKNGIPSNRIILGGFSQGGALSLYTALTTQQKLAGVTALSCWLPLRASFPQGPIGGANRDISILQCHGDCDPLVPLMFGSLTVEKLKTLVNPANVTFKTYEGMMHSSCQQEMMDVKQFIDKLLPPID
- EXPERIMENT DESCRIPTION: IC50 by gel-based competitive ABPP in vitro, soluble HeLa cell proteome
- Assay type: biochemical
- CONDITION LABEL: first value of the cell; read-out: hLYPLA1/2 in vitro potency (IC50): hLYPLA1
READOUT LABEL: IC50 (µM)

I = C#Cc1ccc(CCC2CCN(C(=O)ON3C(=O)[C@H]4CN(C(=O)N5CCOCC5)CCN4C3=O)CC2)cc1 [Compound 49]
II = C#Cc1ccc(CCC2CCN(C(=O)ON3C(=O)[C@@H]4CN(C(=O)N5CCOCC5)CCN4C3=O)CC2)cc1 [Compound 48]
Which entry has a larger number for IC50, I or II ? The response must carry the label of the picked entry.
II
(II: 1.75 µM, I: 0.842 µM)

====

- TARGET: ABHD12 (Mus musculus)
- Construct: from tissue; host or cells: mouse brain, membrane fraction
- Sequence (Q99LR1 whole entry): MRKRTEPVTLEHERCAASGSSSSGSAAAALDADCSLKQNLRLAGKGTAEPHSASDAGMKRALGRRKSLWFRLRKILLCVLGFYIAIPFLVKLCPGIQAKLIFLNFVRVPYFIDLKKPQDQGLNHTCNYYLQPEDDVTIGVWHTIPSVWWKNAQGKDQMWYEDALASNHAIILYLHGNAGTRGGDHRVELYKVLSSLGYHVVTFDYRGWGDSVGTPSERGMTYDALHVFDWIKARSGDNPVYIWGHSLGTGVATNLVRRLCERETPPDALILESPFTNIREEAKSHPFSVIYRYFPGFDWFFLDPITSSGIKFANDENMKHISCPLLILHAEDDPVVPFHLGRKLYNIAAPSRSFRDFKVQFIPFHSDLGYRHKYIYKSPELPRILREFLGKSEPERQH
- EXPERIMENT DESCRIPTION: Gel-based competitive ABPP in vitro, mouse brain membrane proteome
- Type: biochemical
- CONDITION LABEL: mouse brain (mem) proteome
- Experimental: Assay Overview: The purpose of this assay was to determine whether test compounds can inhibit LYPLA1 and LYPLA2 in a complex proteomic lysate and to assess anti-target inhibition using a competitive activity-based proteomic profiling (ABPP) assay. […] The reaction products were separated by SDS-PAGE and visualized in-gel using a flatbed fluorescence scanner. The percentage activity remaining was determined by measuring the integrated optical density of the bands. […]
READOUT LABEL: ABHD12 in vitro enzyme activity, % @ 10 μM (% @)

C#CCOc1ccc(N2CCN(C(=O)ON3C(=O)[C@H]4CN(Cc5ccc(Oc6ccccc6)cc5)CCN4C3=O)CC2)cc1    0
O=C(ON1C(=O)[C@@H]2CN(C(=O)N3CCOCC3)CCN2C1=O)N1CCN(CCc2ccc(Cl)cc2)CC1    0
C#CCOc1ccc(N2CCN(C(=O)ON3C(=O)[C@H]4CN(CC5CCN(Cc6ccccc6)CC5)CCN4C3=O)CC2)cc1    0

====

- TARGET: human LYPLA2 (Homo sapiens)
- Construct: endogenous human LYPLA1/2 in a HeLa soluble proteome; endogenous in cells; host or cells: HeLa (soluble proteome in vitro; cultured cells in situ)
- Sequence (O95372 whole entry): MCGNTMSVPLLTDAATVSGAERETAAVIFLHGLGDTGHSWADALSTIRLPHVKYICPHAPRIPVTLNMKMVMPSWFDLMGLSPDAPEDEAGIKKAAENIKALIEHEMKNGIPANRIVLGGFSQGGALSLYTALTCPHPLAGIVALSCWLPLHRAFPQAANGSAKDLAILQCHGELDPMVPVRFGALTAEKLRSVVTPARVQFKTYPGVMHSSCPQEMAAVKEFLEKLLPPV
- EXPERIMENT DESCRIPTION: IC50 by gel-based competitive ABPP in situ, cultured HeLa cells
- Format: cell-based
- CONDITION LABEL: 2 h, serum-supplemented medium
READOUT LABEL: IC50 (µM)
Provide only the numeric value, understood in µM.

Please report the recorded IC50 for O=C(ON1C(=O)C2CN(C(=O)N3CCOCC3)CCN2C1=O)N1CCC(CCc2ccc(Cl)cc2)CC1 (stereo not shown) .
0.143
